Recorded Bliss excess values for a group of compounds are listed next.
Tested on: IGR-37 (Melanoma);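 further: after 72 h of two-drug dosing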
assayNotes: Bliss excess, mean over the matrix (fraction); higher = more synergy

{"columns": ["compound", "systemName", "Bliss excess"],
 "data": [
  ["COc1cccc2c1C(=O)c1c(O)c3c(c(O)c1C2=O)C[C@@](O)(C(=O)CO)C[C@@H]3O[C@H]1C[C@H](N)[C@H](O)[C@H](C)O1 [Doxorubicin] + Cc1cc2ncnn2cc1Nc1ncc2c(n1)n(C1CCOCC1)c(=O)n2C [AZD7648] (first compound max 1 µM, 7x7, partner max 10 µM)", "IGR-37 (Melanoma)", 0.0631],
  ["C=CCn1c(=O)c2cnc(Nc3ccc(N4CCN(C)CC4)cc3)nc2n1-c1cccc(C(C)(C)O)n1 [AZD1775] + C[C@@H]1COCCN1C2=NC(=NC(=C2)C3(CC3)[S@](=N)(=O)C)C4=C5C=CNC5=NC=C4 [AZD6738] (first compound max 1 µM, partner max 10 µM)", "IGR-37 (Melanoma)", 0.0017]
]}

Shift focus to the following entry.
Kindly note the recorded Bliss excess for CCc1c2c(nc3ccc(O)cc13)-c1cc3c(c(=O)n1C2)COC(=O)[C@]3(O)CC [SN-38] + CN(C)CCCOc1ccc(-c2ccc3ncc4c(c3c2)n(C2CCOCC2)c(=O)n4C)cn1 [AZD0156] (first compound max 0.3 µM, 7x7, partner max 1 µM) , which is -0.0327

====

Test system: LN-405 (Glioblastoma)
assayNotes: combination Emax (second highest fraction inhibited in the dose matrix, 72 h); higher = more inhibition; extreme values may be limits of the assay
observationType: combination Emax
Give the value as a plain number.

Consider the worked cases shown below.
{"columns": ["compound", "combination Emax"],
 "data": [
  ["CN(CCO)CC[C@H](CSc1ccccc1)Nc1ccc(S(=O)(=O)NC(=O)c2ccc(N3CCC([C@@H](O)c4ccccc4-c4ccc(Cl)cc4)CC3)cc2)cc1S(=O)(=O)C(F)(F)F [AZD4320] + C[C@@H](Nc1cc(F)cc(F)c1)c1cc(C(=O)N(C)C)cc2c(=O)cc(N3CCOCC3)oc12 [AZD8186] (first compound max 1 µM, 7x7, partner max 3 µM)", 0.615],
  ["Cc1c2c(nn1C)CSCc1cc(n(C)n1)CSc1cc(c3ccccc3c1)OCCCc1c(C(=O)O)n(C)c3c-2c(Cl)ccc13 [AZD5991] + CCN(CCO)CCCOc1ccc2c(Nc3cc(CC(=O)Nc4cccc(F)c4)[nH]n3)ncnc2c1 [AZD2811] (first compound max 1 µM, 7x7, partner max 1 µM)", 0.437]
]}

Turning to the following compound.
Looking up CCN(CCO)CCCOc1ccc2c(Nc3cc(CC(=O)Nc4cccc(F)c4)[nH]n3)ncnc2c1 [AZD2811] + O=C(c1cc(Cc2n[nH]c(=O)c3ccccc23)ccc1F)N1CCN(C(=O)C2CC2)CC1 [Olaparib] (first compound max 1 µM, 7x7, partner max 10 µM) , I found its combination Emax recorded as 0.192

====

System: PANC-10-05 (Pancreatic Carcinoma)
assayNotes: combination Emax (second highest fraction inhibited in the dose matrix, 72 h); higher = more inhibition; extreme values may be limits of the assay
observationType: combination Emax
Please reply with the value in numeric form only.

{"columns": ["compound", "combination Emax"],
 "data": [
  ["C=CCn1c(=O)c2cnc(Nc3ccc(N4CCN(C)CC4)cc3)nc2n1-c1cccc(C(C)(C)O)n1 [AZD1775] + C1CN(CCC1(C(=O)N[C@@H](CCO)C2=CC=C(C=C2)Cl)N)C3=NC=NC4=C3C=CN4 [Capivasertib] (first compound max 3 µM, partner max 3 µM)", 0.594]
]}

combination Emax reading for COc1nnc2ccc(N3CCC(c4ccc(OCCN5CCN(C)C(=O)[C@H]5C)cc4)CC3)nn12 [AZD5153] + C[C@@H]1COCCN1C2=NC(=NC(=C2)C3(CC3)[S@](=N)(=O)C)C4=C5C=CNC5=NC=C4 [AZD6738] (first compound max 1 µM, 7x7, partner max 10 µM) : 0.682
